- experimental-details: Compound was tested for its relative bone-targeting affinity using a hydroxyapatite column
assay-metric: K'

The examples below pair each entry with its known result.
| chemical-structure | K' |
| --- | --- |
| N[C@H]1CC[C@H](Nc2nc(Nc3ccc(P(=O)(O)CP(=O)(O)O)cc3)c3ncn(C4CCCC4)c3n2)CC1 | 2.5 |
| N[C@H]1CC[C@H](Nc2nc(Nc3ccc(C(P(=O)(O)O)P(=O)(O)O)cc3)c3ncn(C4CCCC4)c3n2)CC1 | 3.3 |

[1] N[C@H]1CC[C@H](Nc2nc(Nc3ccccc3)c3ncn(C4CCCC4)c3n2)CC1
[2] O=P(O)(O)C(O)(CCCNc1nc(Nc2ccccc2)c2ncn(C3CCCC3)c2n1)P(=O)(O)O
[3] N[C@H]1CC[C@H](Nc2nc(Nc3ccc(P(=O)(O)O)c(P(=O)(O)O)c3)c3ncn(C4CCCC4)c3n2)CC1
Rank the items in ascending order with respect to K'. Thanks in advance for listing the labels in the requested order. 1, 3, 2
(1: 0, 3: 1.8, 2: 3.6)

[a] CN(C)CCNc1nc(Nc2ccccc2)c2ncn(C3CCCC3)c2n1
[b] O=P(O)(O)CP(=O)(O)CCCNc1nc(Nc2ccccc2)c2ncn(C3CCCC3)c2n1
# argmax over K' for candidates a and b Give the label under which the chosen entry appears. b
